Each recorded value in this set is attributed to ChEMBL document CHEMBL4334526.

# Tgt: Histone deacetylase
# Method Description: Inhibition of HDAC in human CAL27 cells using Boc-Lys(epsilon-Ac)-AMC as substrate preincubated for 18 hrs followed by substrate addition and measured after 3 hrs by fluorescence assay
# Assay type: cell-based
Entries whose IC50 is below 5 µM take Criterion met; entries at or above 5 µM take Criterion not met.

Consider "Nc1ccccc1NC(=O)CCCCCN(CC(=O)NCc1ccccc1)C(=O)c1cccc2ccccc12" . Does its IC50 lie strictly below 5 µM?
Criterion met

Consider "Nc1ccccc1NC(=O)c1ccc(CN(CC(=O)NCc2ccccc2)C(=O)c2cccnc2)cc1" . Does its IC50 lie strictly below 5 µM?
Criterion met

Consider "CN(C)c1ccc(C(=O)N(CC(=O)NCc2ccccc2)Cc2ccc(C(=O)Nc3cc(-c4ccccc4)ccc3N)cc2)cc1" . Does its IC50 lie strictly below 5 µM?
Criterion met

Consider "Cc1cc(C)cc(CNC(=O)CN(CCCCCC(=O)Nc2ccccc2N)C(=O)c2cc(C)cc(C)c2)c1" . Does its IC50 lie strictly below 5 µM?
Criterion met

Consider "Cc1cc(C)cc(C(=O)N(CC(=O)NCc2ccccc2)Cc2ccc(C(=O)Nc3ccccc3N)cc2)c1" . Does its IC50 lie strictly below 5 µM?
Criterion met

Consider "Cc1cc(C)cc(C(=O)N(CC(=O)NCc2ccccc2)Cc2ccc(C(=O)Nc3cc(F)ccc3N)cc2)c1" . Does its IC50 lie strictly below 5 µM?
Criterion met

Consider "Cc1cc(C)cc(C(=O)N(CCCCCC(=O)Nc2cc(-c3ccccc3)ccc2N)CC(=O)NCc2ccccc2)c1" . Does its IC50 lie strictly below 5 µM?
Criterion met

Consider "Cc1ccc(CNC(=O)CN(CCCCCC(=O)Nc2ccccc2N)C(=O)c2cc(C)cc(C)c2)cc1" . Does its IC50 lie strictly below 5 µM?
Criterion met

Consider "Cc1cc(C)cc(C(=O)N(CCCCCC(=O)Nc2ccccc2N)CC(=O)NCc2ccccc2)c1" . Does its IC50 lie strictly below 5 µM?
Criterion met

Consider "COc1ccc(CNC(=O)CN(CCCCCC(=O)Nc2ccccc2N)C(=O)c2cc(C)cc(C)c2)cc1" . Does its IC50 lie strictly below 5 µM?
Criterion met

New cases:
Consider "Cc1cc(C)cc(C(=O)N(CC(=O)NCc2ccccc2)Cc2ccc(C(=O)Nc3cc(-c4ccccc4)ccc3N)cc2)c1" . Does its IC50 lie strictly below 5 µM?
Criterion met

Consider "Cc1cc(C)cc(C(=O)N(CCCCCC(=O)Nc2ccccc2N)CC(=O)NC2CCCCC2)c1" . Does its IC50 lie strictly below 5 µM?
Criterion not met
